target: Follicle Stimulating Hormone Receptor (FSHR) (Homo sapiens, UniProt P23945); construct: HA (N); expressed in transfected cells; host or cells: CHO-K1, transient transfection, pHM6 vector (CMV promoter); assay: HTRF cAMP agonist assay, FSHR, transiently transfected CHO-K1 cells; type: cell-based; conditions: CHO-K1 cells transiently expressing human FSHR, read-out: IC50 FSHR LANCE CAMP
Sequence (P23945 18-695): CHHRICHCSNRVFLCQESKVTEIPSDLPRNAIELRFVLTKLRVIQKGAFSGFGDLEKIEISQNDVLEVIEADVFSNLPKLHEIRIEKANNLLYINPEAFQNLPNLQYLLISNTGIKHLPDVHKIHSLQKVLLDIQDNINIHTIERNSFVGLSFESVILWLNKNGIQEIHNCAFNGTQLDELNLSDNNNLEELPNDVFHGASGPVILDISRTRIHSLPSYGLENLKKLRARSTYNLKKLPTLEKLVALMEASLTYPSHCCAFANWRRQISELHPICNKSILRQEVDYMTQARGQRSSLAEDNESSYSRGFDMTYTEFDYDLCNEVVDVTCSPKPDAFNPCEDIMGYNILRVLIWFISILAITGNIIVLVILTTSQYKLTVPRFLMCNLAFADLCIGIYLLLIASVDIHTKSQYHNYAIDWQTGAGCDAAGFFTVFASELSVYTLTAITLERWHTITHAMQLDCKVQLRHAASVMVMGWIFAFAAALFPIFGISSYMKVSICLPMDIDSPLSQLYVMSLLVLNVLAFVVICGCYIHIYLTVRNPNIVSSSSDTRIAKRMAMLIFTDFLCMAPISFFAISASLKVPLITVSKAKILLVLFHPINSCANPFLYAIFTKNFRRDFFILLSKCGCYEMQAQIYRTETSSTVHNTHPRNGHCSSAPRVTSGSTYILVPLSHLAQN
Note to self: class = bucket of IC50, per zone 1 = under 20 nM, zone 2 = from 20 nM up to 200 nM, zone 3 = 200 nM and over

Asked: // return the class label for "COc1cc2oc3c(C(=O)N(C)C(C)(C)C)nn(-c4ccsc4)c3c2cc1-c1cncc(C(N)=O)c1"
Given back: zone 3

Asked: Class label required: "COc1cc2c(cc1-c1cncc(C(N)=O)c1)-c1c(c(C(=O)N3CCCC3(C)C)nn1-c1cc(Cl)cc(Cl)c1)CC2"
Given back: zone 1

Asked: Tag the class for "COc1cc2ccc3c(C(=O)N(C)C(C)(C)C)nn(-c4cc(Cl)cc(Cl)c4)c3c2cc1-c1ccn(C)n1"
Given back: zone 2

Asked: Classify this molecule: "COc1cc2c(cc1-c1cncc(C(N)=O)c1)-c1c(c(C(=O)N3CCC(=O)C3(C)C)nn1-c1cc(Cl)cc(Cl)c1)CC2"
Given back: zone 1

Asked: Which IC50 category applies to COc1cc2oc3c(C(=O)N4CCOCC4(C)C)n(-c4ccsc4)nc3c2cc1-c1cncc(C(N)=O)c1 [Compound 4-03A] here?
Given back: zone 3

Asked: In plain terms, what class is "COc1cc2c(cc1-c1cncc(C(N)=O)c1)-c1c(c(C(=O)N3CCOCC3(C)C)nn1-c1ccccn1)CC2" ?
Given back: zone 1

Asked: Class (by measured IC50) for "COc1cc2c(cc1-c1cncc(C(N)=O)c1)-c1c(c(C(=O)N3COCC3(C)C)nn1-c1cc(Cl)cc(Cl)c1)S(=O)(=O)C2"
Given back: zone 2

Asked: Please classify: COc1cc2c(cc1-c1cncc(C(N)=O)c1)-c1c(c(C(=O)N3CCC(S(C)(=O)=O)CC3C)nn1-c1cc(Cl)cc(Cl)c1)CC2 (stereo not shown)
Given back: zone 3

Asked: Hi, small favor: classify "COc1cc2c(cc1-c1cncc(C(N)=O)c1)-c1c(c(C(=O)N3CCOCC3(C)C)nn1-c1cc(Cl)cc(Cl)c1)C2" by its IC50 when you get a moment.
Given back: zone 1

Asked: Lab log: "COc1cc2c(cc1-c1cncc(C(N)=O)c1)-c1c(c(C(=O)N3CCN(CCN)CC3(C)C)nn1-c1cc(Cl)cc(Cl)c1)CC2" — assign IC50 category
Given back: zone 3

Asked: Which class is correct for the following molecule? "COc1cc2c(cc1-c1cncc(C(N)=O)c1)-c1c(c(C(=O)N3CCNC(=O)C3(C)C)nn1-c1cccnn1)CC2"
Given back: zone 3

Asked: State the band of "COc1cc2c(cc1-c1cncc(C(N)=O)c1)-c1c(c(C(=O)N3CCN(C)CC3(C)C)nn1-c1cc(Cl)cc(Cl)c1)CC2"
Given back: zone 1
